Source listed as patent US20250109215A1.

system: T1, human CD123 (human, UniProt P26951 19-305, limits assumed)
T1 construct: Construct on the chip is not described; also called CD123 chip
T1 sequence (looked up): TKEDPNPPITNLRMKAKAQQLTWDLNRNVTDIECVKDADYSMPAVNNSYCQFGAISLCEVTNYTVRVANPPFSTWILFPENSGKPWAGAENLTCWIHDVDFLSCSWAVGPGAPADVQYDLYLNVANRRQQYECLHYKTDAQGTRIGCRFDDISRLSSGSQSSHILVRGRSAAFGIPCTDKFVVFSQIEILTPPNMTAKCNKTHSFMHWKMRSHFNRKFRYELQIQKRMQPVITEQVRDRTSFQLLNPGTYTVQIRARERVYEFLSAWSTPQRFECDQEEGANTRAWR
assay info: Biacore, Fab-His on CD123 (Example 3; the sheet names no assay)
recorded endpoint: kon (M⁻¹ s⁻¹)

>>> observed("13760 7G3_H0L0_Fab_His (Fab, V domains shown, Fab of the murine 7G3 variable regions; also called XENP13760) VH: EVQLQQSGPELVKPGASVKMSCKASGYTFTDYYMKWVKQSHGKSLEWIGDIIPSNGATFYNQKFKGKATLTVDRSSSTAYMHLNSLTSEDSAVYYCTRSHLLRASWFAYWGQGTLVTVSA VL: DFVMTQSPSSLTVTAGEKVTMSCKSSQSLLNSGNQKNYLTWYLQKPGQPPKLLIYWASTRESGVPDRFTGSGSGTDFTLTISSVQAEDLAVYYCQNDYSYPYTFGGGTKLEIKR")
674000
>>> observed("13967 7G3_H1.109_L1.57_Fab_His (Fab, V domains shown, also called XENP13967) VH: QVQLQQSGAEVKKPGASVKVSCKASGYTFTDYYMKWVKQSHGKSLEWMGDIIPSNGATFYNQKFKGKATLTVDRSTSTAYMELSSLRSEDTAVYYCARSHLLRASWFAYWGQGTLVTVSS VL: DFVMTQSPDSLAVSLGERATINCKSSQSLLNTGNQKNYLTWYQQKPGQPPKLLIYWASTRESGVPDRFTGSGSGTDFTLTISSLQAEDVAVYYCQNDYSYPYTFGGGTKLEIKR")
655000
